- system-under-test: T1, biotinylated NANP-peptide (Plasmodium falciparum)
- T1 construct: also called NANP-repeat region of CSP
- T1 peptide: Biotin-NANPNANPNANPNANPNA
- assay-procedure: ELISA, biotinylated peptide on avidin-coated plates, titrated IgG
Where no end group is shown, it is not given here. The star is where a group is joined. Biotin = O=C1N[C@H]2[C@H](CS[C@H]2CCCCC(=O)*)N1

binder	EC50 (µg/mL)
MGU10variant1 (antibody, V domains shown, Expressed as IgG1 in Expi293F cells and tested as quantified culture supernatant; also called MGU10v1) VH: QVQLVESGGGVVQPGRSLRLSCAASGFAFSNYGMHWVRQAPGKGLEWVAVIWHDGSLKYYTQSVKGRFTISRDNAKNTLFLQMDSLSADDTAMYYCTVWYLETPDDGFDIWGQGTMVTVSS VL: QLVLTQPPSASASLGVSVTLTCTLSHGHTSKAIAWHQQQPGKGPRYLMKVNSDGSHTKGAAVPDRFSGSTSGAERHFTISNLQSDDEADYYCQAWDSGIWVFGGGTKLTVL	0.0285
MGU10 (antibody, V domains shown, also called parental antibody MGU10) VH: QVQLVESGGGVVQPGRSLRLSCAASGFAFSNYGMNWVRQAPGKGLEWVAVIWHDGSLKYYTQSVKGRFTISRDNAKNTLFLQMDSLSADDTAMYYCTVWYLETPDDGFDIWGRGTMVTVSS VL: QLVLTQPPSASASLGVSVTLTCTLSHGHTSKAIAWHQQQPGKGPRYLMKVNSDGSHTKGAAVPDRFSGSTSGAERHFTISNLQSDDEADYYCQAWDSGIWVFGGGTKLTVL	0.0343
MGU10variant2 (antibody, V domains shown, Expressed as IgG1; also called MGU10v2) VH: QVQLVESGGGVVQPGRSLRLSCAASGFAFSNYGMNWVRQAPGKGLEWVAVIWHDGSLKYYTQSVKGRFTISRDNAKNTLFLQMDSLSADDTAMYYCTVWYLETPDEGFDIWGRGTMVTVSS VL: QLVLTQPPSASASLGVSVTLTCTLSHGHTSKAIAWHQQQPGKGPRYLMKVNSDGSHTKGAAVPDRFSGSTSGAERHFTISNLQSDDEADYYCQAWDSGIWVFGGGTKLTVL	0.0268
MGU10variant3 (antibody, V domains shown, Expressed as IgG1; also called MGU10v3) VH: QVQLVESGGGVVQPGRSLRLSCAASGFAFSNYGMNWVRQAPGKGLEWVAVIWHDGSLKYYTQSVKGRFTISRDNAKNTLFLQMDSLSADDTAMYYCTVWYLETPDDGFDIWGRGTMVTVSS VL: QLVLTQPPSASASLGVSVTLTCTLSHGHTSKAIAWHQQQPGKGPRYLMKVNSDGSHTKGAAVPDRFSGSTSGAERHFTISNLQSDDEADYYCQAWESGIWVFGGGTKLTVL	0.0263

// provenance: patent US20230084102A1
